Molecular target: T1, TNFR2-His (Sino Biological, 10417-H08H, NP_001057.1 Met1-Asp257, with multi-histidine tag expressed on … (human, UniProt P20333 23-257))
T1 construct: range 1-257; Bought protein; also called recombinant human TNFR2 protein; TNFR2-His antigen; not shown: C-terminal multi-histidine tag
T1 sequence (looked up): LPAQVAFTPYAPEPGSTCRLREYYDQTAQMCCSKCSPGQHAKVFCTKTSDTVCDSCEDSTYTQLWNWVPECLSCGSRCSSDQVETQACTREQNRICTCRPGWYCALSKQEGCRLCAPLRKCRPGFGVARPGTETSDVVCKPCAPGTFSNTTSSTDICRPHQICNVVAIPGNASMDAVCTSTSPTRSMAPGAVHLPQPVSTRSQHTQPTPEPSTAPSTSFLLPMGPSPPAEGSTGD
Experiment: ELISA, plate coated with TNFR2-His
Each item that follows carries a reported EC50.

Binder	EC50
11G2huVH5 + huVL3(P07275) (antibody, V domains shown, Humanized 11G2) VH: QVQLVQSGAEVKKPGASVKVSCKASGYTFITYDINWVRQATGQGLEWIGWIYPRDGNTQYAQKFQGRVTMTRNTSISTAYMELSSLRSEDTAVYYCARGDRDYGYFDVWGQGTTVTVSS VL: DIQMTQSPSSLSASVGDRVTITCQASQDISNYLNWYQQKPGKAPKLLIYFKSKLETGVPSRFSGSGSGTDFTFTISSLQPEDIATYYCQQGNTLPLTFGGGTKLEIK	0.0222 mg/L
11G2huVH4 + huVL3(P07274) (antibody, V domains shown, Humanized 11G2) VH: QVQLVQSGAEVKKPGASVKVSCKASGYTFITYDINWVRQAPGQGLEWIGWIYPRDGNTQYAQKFQGRVTMTTDTSTSTAYMELRSLRSDDTAVYYCARGDRDYGYFDVWGQGTTVTVSS VL: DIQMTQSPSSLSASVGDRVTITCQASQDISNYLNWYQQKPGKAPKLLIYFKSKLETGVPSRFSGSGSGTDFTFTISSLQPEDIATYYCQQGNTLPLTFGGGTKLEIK	0.0746 mg/L
11G2huVH3 + huVL2(P07268) (antibody, V domains shown, Humanized 11G2) VH: QVQLVQSGAEVKKPGASVKVSCKASGYTFITYDINWVRQATGQGLEWIGWIYPRDGNTQFNENFQGRVTMTRNTSISTAYMELSSLRSEDTAVYYCARGDRDYGYFDVWGQGTTVTVSS VL: DIQMTQSPSSLSASVGDRVTITCRASQDISNYLNWYQQKPGKAPKLLIYFKSKLHSGVPSRFSGSGSGTDFTLTISSLQPEDFATYYCQQGNTLPLTFGGGTKLEIK	0.0404 mg/L
